# System: SD rats
# EXPERIMENTAL_SETUP: TI=LD50/ED50, rat, 6 mg/ml solution
Provide the reported TI Rat of each item.
Reply with just the number.

Return reported TI Rat; argument: CC(C)c1cccc(C(C)C)c1OC(=O)C(F)CC(=O)[O-].[Na+] (stereo not shown) [F7] 3.5

# query: TI Rat of entry CC(C)c1cccc(C(C)C)c1OC(=O)[C@@H](F)CCOP(=O)([O-])[O-].[Na+].[Na+] [G2] 2.8

Form field: reported TI Rat of CC(C)c1cccc(C(C)C)c1O [Propofol, 2,6-diisopropylphenol] 4.9

State the recorded TI Rat for this entry: CC(C)c1cccc(C(C)C)c1OC(=O)[C@H](F)CCN(C)C.Cl [E2] 3.1
